Tested on: Tetrahymena pyriformis
Experiment: 48 h IGC50 (-log10 mol/L); higher = more toxic
Decide using 48 h IGC50 (-log10 mol/L): a value greater than or equal to 3 is y, a smaller one is n.

Query block: Assess whether reported 48 h IGC50 (-log10 mol/L) for "Cc1cccc(C)n1" sits at 3 or higher.
Result block: n

Query block: Assess whether reported 48 h IGC50 (-log10 mol/L) for "CCS(=O)(=O)c1ccccc1" sits at 3 or higher.
Result block: n

Query block: Assess whether reported 48 h IGC50 (-log10 mol/L) for "CCCCCCOc1ccc(O)cc1" sits at 3 or higher.
Result block: y

Query block: Assess whether reported 48 h IGC50 (-log10 mol/L) for "OCCCCl" sits at 3 or higher.
Result block: n

Query block: Assess whether reported 48 h IGC50 (-log10 mol/L) for "CCOC(=O)c1ccc(OC)cc1" sits at 3 or higher.
Result block: y

----------
System: Tetrahymena pyriformis
Test: 48 h IGC50 (-log10 mol/L); higher = more toxic
Decide using 48 h IGC50 (-log10 mol/L): a value greater than or equal to 3 is T, a smaller one is F.

Compound | Class Assignment
c1csc(-c2cccs2)c1 | T
CC(C)=CCO | F
CCC(C)(C)c1ccc(O)cc1 | T
CCCC#CC(=O)OC | T
CCC(C)CC(=O)O (centres undefined) | F

Could you now look at the following compound, please?
Query block: Assess whether reported 48 h IGC50 (-log10 mol/L) for "CCCCC(=O)O" sits at 3 or higher.
Result block: F

----------
Test system: Pimephales promelas
Assay: 96 h LC50 (-log10 mol/L); higher = more toxic
Decide using 96 h LC50 (-log10 mol/L): a value greater than or equal to 4 is Condition met, a smaller one is Condition not met.

Compound | Measured On | Class Assignment
CCCCCCCO | Pimephales promelas | Condition not met
CCCO | Pimephales promelas | Condition not met

Query block: Assess whether reported 96 h LC50 (-log10 mol/L) for "Cc1ccc(N)cc1N" sits at 4 or higher.
Result block: Condition not met

Query block: Assess whether reported 96 h LC50 (-log10 mol/L) for "Clc1cccc(-c2ccccc2)c1" sits at 4 or higher.
Result block: Condition met

Query block: Assess whether reported 96 h LC50 (-log10 mol/L) for O=C1C2(Cl)C3(Cl)C4(Cl)C(Cl)(Cl)C5(Cl)C3(Cl)C1(Cl)C5(Cl)C24Cl (configuration not stated) sits at 4 or higher.
Result block: Condition met

Query block: Assess whether reported 96 h LC50 (-log10 mol/L) for "CCN(CC)C(=O)c1cccc(C)c1" sits at 4 or higher.
Result block: Condition not met

Query block: Assess whether reported 96 h LC50 (-log10 mol/L) for "O/N=C/c1ccccc1O" sits at 4 or higher.
Result block: Condition met

----------
System: Pimephales promelas
Assay: 96 h LC50 (-log10 mol/L); higher = more toxic
I'd be grateful if you could share measured 96 h LC50 (-log10 mol/L) for these entries.
Give bare numbers.

Use these answered entries as a reference point.
Compound | 96 h LC50 (-log10 mol/L)
CCCCCC(C)=O | 2.94
c1ccc(-c2ccc(-c3ccccc3)o2)cc1 | 6.64
CC(=O)CC(C)=O | 2.85

// batch mode: one 96 h LC50 (-log10 mol/L) value per listed entry
1. CCN(CC)c1ccc(C=O)cc1
2. O=Cc1ccc(Cl)cc1
3. c1ccc2ncccc2c1
4. C=C(CCl)CCl
5. Cc1ccccc1C

Result block:
3.87
4.8
3.45
5.82
3.81

----------
Tested on: Daphnia magna
Assay: 48 h LC50 (-log10 mol/L); higher = more toxic
Decide using 48 h LC50 (-log10 mol/L): a value greater than or equal to 5 is yes, a smaller one is no.

Molecule | Measured On | Class Assignment
COP(=O)(NC(C)=O)SC (stereo not drawn) | Daphnia magna | no
ClC(Cl)=C(Cl)Cl | Daphnia magna | no
Clc1cccc(-c2ccccc2)c1 | Daphnia magna | yes
O=[N+]([O-])c1ccc(Cl)c([N+](=O)[O-])c1 | Daphnia magna | yes
COC1=CC(=O)C[C@@H](C)[C@]12Oc1c(Cl)c(OC)cc(OC)c1C2=O | Daphnia magna | no
CN1CSC(=S)N(C)C1 | Daphnia magna | yes

Query block: Assess whether reported 48 h LC50 (-log10 mol/L) for "O=c1ccc2ccccc2o1" sits at 5 or higher.
Result block: no

Query block: Assess whether reported 48 h LC50 (-log10 mol/L) for CCCCC(CC)COC(=O)c1ccccc1C(=O)OCC(CC)CCCC (stereo not drawn) sits at 5 or higher.
Result block: no

Query block: Assess whether reported 48 h LC50 (-log10 mol/L) for "Clc1ccc(Cl)c(-c2ccccc2Cl)c1" sits at 5 or higher.
Result block: yes

----------
System: Pimephales promelas
Assay: 96 h LC50 (-log10 mol/L); higher = more toxic
I'd be grateful if you could share measured 96 h LC50 (-log10 mol/L) for these entries.

Use these answered entries as a reference point.
Compound | 96 h LC50 (-log10 mol/L)
COP(=S)(OC)SCN1C(=O)c2ccccc2C1=O | 4.59
c1ccoc1 | 3.05
CC1(C)NC(=O)NC1=O | 0.89

// batch mode: one 96 h LC50 (-log10 mol/L) value per listed entry
1. O=C1CCCCC1
2. O=[N+]([O-])c1cccc(Cl)c1
3. N#Cc1cccc([N+](=O)[O-])c1
4. CCCCCCCCCC(C)=O
5. CCOP(=S)(OCC)SCSC(C)(C)C

Result block:
1: 2.19; 2: 3.93; 3: 3.39; 4: 5.05; 5: 6.81

----------
Tested on: Daphnia magna
Test: 48 h LC50 (-log10 mol/L); higher = more toxic
I'd be grateful if you could share measured 48 h LC50 (-log10 mol/L) for these entries.
One number for each entry.

Molecule | 48 h LC50 (-log10 mol/L)
BrC1CCCCC1 | 3.89
C1=CC2C3C=CC(C3)C2C1 (centres undefined) | 4.1
O=S1c2ccccc2-c2ccccc21 | 4

Now consider the entry below.
Query block: Can you share its 48 h LC50 (-log10 mol/L)? I mean this molecule: "Oc1cc(Cl)c(Cl)cc1Cl"
Result block: 4.86

----------
I'd be grateful if you could share measured 48 h LC50 (-log10 mol/L) for these entries.
Test system: Daphnia magna
Assay: 48 h LC50 (-log10 mol/L); higher = more toxic
One number for each entry.

Use these answered entries as a reference point.
Compound | Measured On | Experimental Endpoint | Numeric Result
CCCCOCCOCCOCc1cc2c(cc1CCC)OCO2 | Daphnia magna | 48 h LC50 (-log10 mol/L) | 5.29
c1ccc(C2CO2)cc1 (centres undefined) | Daphnia magna | 48 h LC50 (-log10 mol/L) | 4.02
N#Cc1ncccn1 | Daphnia magna | 48 h LC50 (-log10 mol/L) | 3.34

// batch mode: one 48 h LC50 (-log10 mol/L) value per listed entry
1. CC(=O)CC(c1ccccc1)c1c(O)c2ccccc2oc1=O (centres undefined)
2. CC(C)CC[C@@H](O)[C@](C)(O)[C@H]1CC[C@@]2(O)C3=CC(=O)[C@@H]4C[C@@H](O)[C@@H](O)C[C@]4(C)[C@H]3CC[C@]12C
3. c1cc2c3c(cccc3c1)CC2
4. Cc1ccccc1N
5. COP(=O)(OC)C(O)C(Cl)(Cl)Cl (centres undefined)

Result block:
2.96
6.42
3.58
5.31
7.7

// batch mode: one 48 h LC50 (-log10 mol/L) value per listed entry
1. CCCCCCCCCC
2. c1ccc2c(c1)cc1ccc3cccc4ccc2c1c34
3. Cc1csc2ccccc12
4. CSc1nc(NC2CC2)nc(NC(C)(C)C)n1
5. CCN(CC)C(=O)SCc1ccc(Cl)cc1
6. O=Cc1ccccc1

Result block:
[5.3, 6, 4.76, 4.49, 5.55, 3.98]

// batch mode: one 48 h LC50 (-log10 mol/L) value per listed entry
1. Clc1ccc(Cl)cc1
2. Clc1cc(Cl)c(-c2ccccc2)cc1Cl
3. CCOC(=O)c1ocnc1C
4. Cc1cc(O)ccc1Cl
5. CCC(O)C(C)CO (centres undefined)
6. c1ccc2c(c1)ccc1sc3ccccc3c12
7. O=[N+]([O-])OCC(CO[N+](=O)[O-])O[N+](=O)[O-]

Result block:
1: 4.14; 2: 5.64; 3: 2.67; 4: 4.85; 5: 1.22; 6: 6.03; 7: 3.85

// batch mode: one 48 h LC50 (-log10 mol/L) value per listed entry
1. c1ccc2c(c1)ccc1oc3ccccc3c12
2. CCNc1nc(Cl)nc(NC(C)(C)C#N)n1

Result block:
1. 4.74
2. 6.45

----------
Tested on: Daphnia magna
Test: 48 h LC50 (-log10 mol/L); higher = more toxic
I'd be grateful if you could share measured 48 h LC50 (-log10 mol/L) for these entries.
Numbers only.

Use these answered entries as a reference point.
Compound | 48 h LC50 (-log10 mol/L)
FCC(F)(F)F | 2.02
CC1CCCCC1 | 4.82
CCOP(=S)(OCC)OP(=S)(OCC)OCC | 9.15
CN/C(=C\[N+](=O)[O-])NCCSCc1ccc(CN(C)C)o1 | 2.69

// batch mode: one 48 h LC50 (-log10 mol/L) value per listed entry
1. ClCCCCl
2. O=P(O)(O)CCCl

Result block:
[2.61, 3.04]

// batch mode: one 48 h LC50 (-log10 mol/L) value per listed entry
1. O=C(O)/C=C\C(=O)O
2. Clc1cccc(Cl)c1
3. CCOP(=O)(SC(C)CC)N1CCSC1=O (centres undefined)
4. CCCCCCCCc1ccc(O)cc1
5. C=Cc1ccccc1
6. CC(C)(C)C(=O)Cl
7. CCC(=O)O
8. CC1(C)C(C=C(Cl)Cl)C1C(=O)OCc1cccc(Oc2ccccc2)c1 (centres undefined)

Result block:
1: 2.76; 2: 4.3; 3: 5.76; 4: 6.36; 5: 3.53; 6: 2.58; 7: 3.17; 8: 8.07

// batch mode: one 48 h LC50 (-log10 mol/L) value per listed entry
1. Cc1ccc(Cl)cc1[N+](=O)[O-]
2. CC(C)C1OCC=CCO1
3. NNC(=O)c1ccncc1
4. O=[N+]([O-])c1ccccc1O
5. ClC=C(Cl)Cl

Result block:
1: 4.27; 2: 2.27; 3: 3.77; 4: 4.02; 5: 3.48
